Tested on: INS-1E rat beta cells, no cytokines, CellTiter-Glo ATP, 48 h
Experiment: cytokine-free beta-cell viability effect – INS-1E rat cells, ATP luminescence, cherry pick, counter-screen for beta-cell apoptosis protection project, dose response (AID 463229)
The source made the active and inactive calls.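 How the source made its calls: active means compounds raising the signal whose fitted half-maximal concentration is at or below their top tested dose (cut at about 25 µM in these data); inconclusive means flat fit at 30 to 70% activity, or a poor fit; inactive means the rest.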
Outcome codes: active, inactive

molecule: Cc1ccc(-c2cc(-c3ccccc3)cc(-c3ccccc3)[n+]2-c2ccccc2)cc1
qualitative label: active
--
molecule: COc1ccc(NS(=O)(=O)c2ccc(N3CCOCC3)c(N)c2)cc1
qualitative label: active
--
molecule: N/C(=N\OC(=O)c1cccc(Cn2cc(C(F)(F)F)ccc2=O)c1)c1ccccc1
qualitative label: active
--
molecule: O=C(CCC(=O)Nc1ccc(Br)cc1)N/N=C/c1ccccc1O
qualitative label: active
--
molecule: CC(=O)N1CCc2cc(S(=O)(=O)NCCC3=CCCCC3)ccc21
qualitative label: active
--
molecule: O=C(C(Cl)Cl)N1c2ccccc2OCC1c1ccccc1 (stereo not drawn)
qualitative label: active
--
molecule: CCOC(=O)/C(=C\c1ccccc1)C(=O)c1cc(C(C)=O)c(Nc2ccccc2)s1
qualitative label: active
--
molecule: CCN(CC)c1ccc2nc3ccccc3[n+](CC)c2c1
qualitative label: active
--
molecule: O=C(CCC(=O)Nc1ccc(Cl)cc1Cl)N/N=C/c1ccc([N+](=O)[O-])o1
qualitative label: active
--
molecule: CC(Oc1ccc(Cl)cc1Cl)c1nc(-c2ccc(NC(=O)c3cccnc3)cc2)no1 (stereo not drawn)
qualitative label: active
--
molecule: O=C(CCSc1nc2ccccc2s1)N/N=C/c1c(O)ccc2ccccc12
qualitative label: active
--
molecule: COc1ccc(C(=O)NC(=S)NNC(=O)c2cnccn2)cc1OC
qualitative label: active
--
molecule: Cc1onc(-c2c(Cl)cccc2Cl)c1C(=O)N/N=C(\N)COc1ccc(Cl)cc1
qualitative label: active
--
molecule: Cc1ccc(NS(=O)(=O)c2ccc(Cl)c(NC(=S)NC(=O)C3CCCCC3)c2)cc1Cl
qualitative label: active
--
molecule: CCN(CC)c1ccc(/C=N/NC(=S)NCc2ccccc2)c(O)c1
qualitative label: active
--
molecule: O=C(N/N=C/c1c(O)ccc2ccccc12)c1cccnc1
qualitative label: active
--
molecule: O=c1nccc(N/N=C/c2ccccc2O)[nH]1
qualitative label: active
--
molecule: O=[N+]([O-])c1ccc(NC(=S)NCCc2ccc(Cl)cc2)cc1
qualitative label: active
--
molecule: COc1ccc(S(=O)(=O)Nc2cc(SCC(=O)O)c(O)c3ccccc23)cc1
qualitative label: active
--
molecule: COC1=C(Nc2ccccc2OC)C(=O)c2ccccc2C1=O
qualitative label: inactive
--
molecule: Cc1cccc(CSC(Nc2ccc(F)cc2)=C(C#N)C#N)c1
qualitative label: active
--
molecule: Nc1c(Cl)ncnc1N/N=C/c1ccccn1
qualitative label: active
--
molecule: Cc1ccc(Nc2cc(C)nc(NCc3ccccc3)n2)cc1
qualitative label: active

###

System: INS-1E rat beta cells, no cytokines, CellTiter-Glo ATP, 48 h
Experiment: cytokine-free beta-cell viability effect – INS-1E rat cells, ATP luminescence, cherry pick, counter-screen for beta-cell apoptosis protection project, dose response (AID 463229)
compounds and their reported AC50

compound: COC(=O)c1c(C)oc2ccc(N(C(=O)c3ccncc3)S(=O)(=O)c3ccc(C)cc3C)cc12
AC50: 5.76 µM
--
compound: N#CC(C#N)=C1C=CC=CN1/C(=C\c1ccco1)C(=O)c1ccccc1
AC50: 13 µM
--
compound: Cc1cc(C(C)(C)C)cc(C)c1Cn1c2[n+](c3ccc(C(F)(F)F)cc31)CCCCC2
AC50: 4.19 µM
--
compound: COc1ccc(-c2c[n+](CC(=O)OC3CC(C)CCC3C(C)C)c3n2CCC3)cc1 (stereo not given)
AC50: 1.87 µM
--
compound: O=[N+]([O-])/C=C/c1ccc2c(ccn2Cc2ccccc2)c1
AC50: 7.72 µM
--
compound: Cc1cccc(Cn2nnc3c2C(=O)c2ccccc2C3=O)c1
AC50: 10.5 µM
--
compound: Nc1nc(N)c2cc(Sc3ccc4ccccc4c3)ccc2n1
AC50: 2.09 µM
--
compound: CCCCCCCCCCCCCCCC[n+]1cccc(C(=O)N(CC)CC)c1
AC50: 8.01 µM
--
compound: CCCCCCn1c2c(c(=N)c3c1CCC3)CCC2
AC50: 1.88 µM
--
compound: Cc1sc2ncnc(N3CCN(S(=O)(=O)c4ccc(C(C)(C)C)cc4)CC3)c2c1C
AC50: 4.17 µM

###

Tested on: INS-1E rat beta cells, no cytokines, CellTiter-Glo ATP, 48 h
Experiment: cytokine-free beta-cell viability effect – INS-1E rat cells, ATP luminescence, cherry pick, counter-screen for beta-cell apoptosis protection project, dose response (AID 463229)
Reported AC50 values for a set of molecules

molecule: COc1cnc(-c2ccccn2)nc1Sc1ccc(C)cc1
AC50: 17.2 µM
--
molecule: CCCCCc1cc(=O)oc2c(C(CCN3CCCC(C)C3)c3ccc(OC)cc3)c(OC)cc(OC)c12 (stereo unspecified)
AC50: 14.2 µM
--
molecule: COc1ccc(Cn2c(SCc3ccccc3C)nc3cc(OC)c(OC)cc3c2=N)cc1
AC50: 7.93 µM
--
molecule: C/C(=N/Nc1nc(-c2ccccc2)cc(-c2ccc(F)cc2)n1)c1cccc(N)c1
AC50: 15.1 µM
--
molecule: COc1cc(NC(C)CCCN)c2ncccc2c1 (stereo unspecified)
AC50: 13.8 µM
--
molecule: Cc1c(C(=O)Nc2nc(-c3ccccn3)cs2)oc2ccccc12
AC50: 17.4 µM
--
molecule: COc1cccc(/C=N/NC(=O)c2[nH]nc3c2CCc2ccccc2-3)c1O
AC50: 4.25 µM
--
molecule: CC(Nc1ncnc2ccccc12)c1ccccc1 (stereo unspecified)
AC50: 3.58 µM
--
molecule: CCN(CC)CCn1c2ccccc2c2cnc(N)c(C#N)c21
AC50: 14.3 µM
--
molecule: COC(=O)C1=C(C)N(Cc2ccccc2)C(=NCc2cccc(Cl)c2)N[C@H]1c1cccc(F)c1
AC50: 6.75 µM
--
molecule: O=c1cnnc(N/N=C/c2ccccn2)[nH]1
AC50: 3.93 µM

###

Below, each of the compounds is paired with its reported AC50 value.
Test system: INS-1E rat beta cells, no cytokines, CellTiter-Glo ATP, 48 h
Experiment: cytokine-free beta-cell viability effect – INS-1E rat cells, ATP luminescence, cherry pick, counter-screen for beta-cell apoptosis protection project, dose response (AID 463229)
reported property: AC50

compound: CCS(=O)(=O)c1ncc(Cl)c(C(=O)Nc2ccc(S(=O)(=O)N3CCC(C)CC3)cc2)n1
subject of test: INS-1E rat beta cells, no cytokines, CellTiter-Glo ATP, 48 h
experimental result: 7.4 µM
--
compound: Cc1ccc(S(=O)(=O)NCc2ccncc2)c(C)c1C
subject of test: INS-1E rat beta cells, no cytokines, CellTiter-Glo ATP, 48 h
experimental result: 3.83 µM
--
compound: O=C(COC(=O)c1cn(-c2ccccc2)nc1-c1ccccc1)c1cccc([N+](=O)[O-])c1
subject of test: INS-1E rat beta cells, no cytokines, CellTiter-Glo ATP, 48 h
experimental result: 2.8 µM
--
compound: Cc1nnc2ccc(Oc3ccc(-c4ccccc4)cc3)nn12
subject of test: INS-1E rat beta cells, no cytokines, CellTiter-Glo ATP, 48 h
experimental result: 8.92 µM
--
compound: CC(C)Cn1c(SCC(=O)N2CCc3ccccc3C2)nc2cc(Cl)ccc2c1=O
subject of test: INS-1E rat beta cells, no cytokines, CellTiter-Glo ATP, 48 h
experimental result: 6.5 µM
--
compound: CCCCCc1cc(=O)oc2c(C(CCN(CC)CC)c3ccc(OC)cc3)c(OC)cc(OC)c12 (stereo not given)
subject of test: INS-1E rat beta cells, no cytokines, CellTiter-Glo ATP, 48 h
experimental result: 14 µM
--
compound: CCCCCCc1cc2cc(C(=O)Nc3cccc(OC)c3)c(=O)oc2cc1O
subject of test: INS-1E rat beta cells, no cytokines, CellTiter-Glo ATP, 48 h
experimental result: 4.41 µM
--
compound: Cn1ncnc2c(=O)n(C)c(=O)nc1-2
subject of test: INS-1E rat beta cells, no cytokines, CellTiter-Glo ATP, 48 h
experimental result: 1.48 µM
--
compound: COc1ccc(-c2nn(-c3ccccc3)cc2/C=N/N2C(=O)CSC2=S)cc1
subject of test: INS-1E rat beta cells, no cytokines, CellTiter-Glo ATP, 48 h
experimental result: 6.57 µM
--
compound: Cc1sc2ncnc(NCC(O)c3ccc([N+](=O)[O-])cc3)c2c1C (stereo not given)
subject of test: INS-1E rat beta cells, no cytokines, CellTiter-Glo ATP, 48 h
experimental result: 5.1 µM
--
compound: CCOC(=O)c1ccc(NC(=O)NCc2cccnc2)cc1
subject of test: INS-1E rat beta cells, no cytokines, CellTiter-Glo ATP, 48 h
experimental result: 2.01 µM
--
compound: O=C(NCCCn1ccnc1)c1ccc(-c2ccccc2)cc1
subject of test: INS-1E rat beta cells, no cytokines, CellTiter-Glo ATP, 48 h
experimental result: 8.12 µM
--
compound: Cc1sc2ncnc(NCC3COc4ccccc4O3)c2c1C (stereo not given)
subject of test: INS-1E rat beta cells, no cytokines, CellTiter-Glo ATP, 48 h
experimental result: 2.34 µM
--
compound: COc1ccc(-[n+]2c(-c3ccccc3)cc(-c3ccccc3)cc2-c2ccccc2)cc1
subject of test: INS-1E rat beta cells, no cytokines, CellTiter-Glo ATP, 48 h
experimental result: 1.71 µM
--
compound: CCc1ccc(-n2cc(-c3ccc(F)cc3)[n+]3c2SCCC3)cc1
subject of test: INS-1E rat beta cells, no cytokines, CellTiter-Glo ATP, 48 h
experimental result: 0.413 µM
--
compound: C=CCn1c(C)c(/C=C/c2cc[n+](C)cc2)c2ccccc21
subject of test: INS-1E rat beta cells, no cytokines, CellTiter-Glo ATP, 48 h
experimental result: 5.99 µM
--
compound: COc1ccc(/C=N/NC(=O)c2nc(-c3ccccc3)n(-c3ccccc3)n2)c(O)c1
subject of test: INS-1E rat beta cells, no cytokines, CellTiter-Glo ATP, 48 h
experimental result: 4.37 µM
--
compound: CCN(CC)S(=O)(=O)c1ccc(Cl)c(C(=O)Nc2ccc(Cl)cc2[N+](=O)[O-])c1
subject of test: INS-1E rat beta cells, no cytokines, CellTiter-Glo ATP, 48 h
experimental result: 7.97 µM
--
compound: C#CCOCCOCCOCCNc1nc(N2CCN(C(=O)CCCCCCCCCCNC(=O)[C@H](CCCCN)n3cc(C[C@@H](C)CC)nn3)CC2)nc(N2CCN(C(=O)CCCCCCCCCCNC(=O)[C@@H]([C@H](C)O)n3cc(C)nn3)CC2)n1
subject of test: INS-1E rat beta cells, no cytokines, CellTiter-Glo ATP, 48 h
experimental result: 6.91 µM
--
compound: Cc1cc2nc(-c3ccc[nH]c3=O)[nH]c2cc1C
subject of test: INS-1E rat beta cells, no cytokines, CellTiter-Glo ATP, 48 h
experimental result: 2.42 µM
